meta.source: patent US20180265463A1

Molecular target: SREBP
Assay: SRE-driven luciferase reporter assay of SREBP activation
Assay type: cell-based, Chinese hamster
Conditions: luciferase reporter in CHO-K1 cells, lipid-depleted medium, 20-24 h, normalized to β-galactosidase; averages of three independent experiments; read-out: IC50 (μM), inhibitory effect on the activation of SREBP
Protocol: The transfected cells were treated with DMSO alone, sterols (10 μg/mL cholesterol and 1.0 μg/mL 25-HC), or varied concentrations of 25(OH)D in a medium containing lipid-free serum. Luciferase activity was measured after 20 h incubation, and the data were normalized to β-galactosidase activity. Values are the mean±SD of three independent experiments. […]
Measure: IC50 (µM)
Give bare numbers, in µM.

[
  {
    "Molecule": "C=C1C(=CC=C2CCCC3(C)C2CCC3C(C)CCCC(C)C)CC(O)CC1NC(C)=O (stereo not drawn) [Compound 22b, 1β-NHAc VD3]",
    "Assayed system": "SREBP",
    "Measure": "IC50",
    "Numeric value": 3.56
  }
]

Give me IC50 for each of these molecules, listed below.
1. C=C1C(=CC=C2CCCC3(C)C2CCC3C(C)CCCC(C)C)CC(O)CC1NC(=O)OCc1ccccc1 (centres unmarked)
2. C=C1C(=CC=C2CCCC3(C)C2CCC3C(C)CCCC(C)C)CC(O)CC1NC(C)=O (stereo not drawn) [Compound 22a, 1α-NHAc VD3]
3. C=C1C(=CC=C2CCCC3(C)C2CCC3C(C)CCCC(C)C)CC(O)CC1NC(=O)OC(C)(C)C (stereo not drawn) [Compound 18a, 1α-NHBoc VD3]
4. C=C1C(=CC=C2CCCC3(C)C2CCC3C(C)CCCC(C)C)CC(O)CC1NS(=O)(=O)c1ccc(C)cc1 (centres unmarked)

## Output
1: 1.38; 2: 3.24; 3: 0.82; 4: 0.61
